Task for the reader: assign each of the following compounds its reported pIC50.
- SYSTEM: Voltage-gated inwardly rectifying potassium channel KCNH2 (Homo sapiens, UniProt Q12809)
- Sequence (Q12809 whole entry): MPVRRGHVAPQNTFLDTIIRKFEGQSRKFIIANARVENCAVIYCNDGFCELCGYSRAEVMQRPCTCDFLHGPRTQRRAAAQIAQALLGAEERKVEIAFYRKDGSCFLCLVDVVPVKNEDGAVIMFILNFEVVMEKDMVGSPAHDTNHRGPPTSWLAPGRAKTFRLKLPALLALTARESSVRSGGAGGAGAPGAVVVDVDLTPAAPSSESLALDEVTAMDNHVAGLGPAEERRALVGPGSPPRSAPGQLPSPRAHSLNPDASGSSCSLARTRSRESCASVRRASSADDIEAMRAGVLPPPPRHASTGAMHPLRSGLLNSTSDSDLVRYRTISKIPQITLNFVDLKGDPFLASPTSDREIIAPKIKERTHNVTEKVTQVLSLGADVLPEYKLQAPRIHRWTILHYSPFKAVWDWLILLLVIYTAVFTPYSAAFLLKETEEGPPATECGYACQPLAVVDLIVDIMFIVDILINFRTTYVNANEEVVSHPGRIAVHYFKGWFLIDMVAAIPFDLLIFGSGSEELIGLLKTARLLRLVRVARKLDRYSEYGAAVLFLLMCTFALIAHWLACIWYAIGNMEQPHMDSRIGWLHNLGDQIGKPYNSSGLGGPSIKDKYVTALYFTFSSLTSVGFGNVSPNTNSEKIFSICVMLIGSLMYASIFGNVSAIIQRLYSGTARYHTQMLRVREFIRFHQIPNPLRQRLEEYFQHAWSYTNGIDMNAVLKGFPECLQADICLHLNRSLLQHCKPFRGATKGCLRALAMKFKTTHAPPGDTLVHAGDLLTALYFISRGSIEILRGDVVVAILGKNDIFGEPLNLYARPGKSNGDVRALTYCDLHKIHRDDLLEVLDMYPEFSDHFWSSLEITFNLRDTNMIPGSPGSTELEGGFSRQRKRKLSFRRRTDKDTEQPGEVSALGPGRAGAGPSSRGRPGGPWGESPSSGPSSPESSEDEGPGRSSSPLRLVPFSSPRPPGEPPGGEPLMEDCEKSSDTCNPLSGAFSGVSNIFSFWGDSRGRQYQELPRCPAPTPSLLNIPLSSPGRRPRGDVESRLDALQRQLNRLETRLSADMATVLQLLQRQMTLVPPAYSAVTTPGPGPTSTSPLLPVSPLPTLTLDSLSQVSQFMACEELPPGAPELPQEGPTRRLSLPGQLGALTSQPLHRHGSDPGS
Units for pIC50: none; it is -log10 of a concentration expressed in mol/L.

May I ask what pIC50 has been recorded for C[C@@H]1C[C@H](N)CN(c2ccncc2Nc2ncc3ccc(-c4c(F)cccc4F)nn23)C1 ? 6.00

Request: C[C@@H]1CC[C@H](N)CN1c1ccncc1Nc1ncc2ccc(-c3c(F)cccc3F)nn12 4.71

----------
- METHOD SUMMARY: Intrinsic clearance in rat liver microsomes at 1 uM after 30 mins by LC-MS HRMS analysis
- Type: ADME
- RECORDED CONDITIONS: read-out: CLH
OBSERVED PROPERTY: microsomal CLint at 1 µM (µL/min/mg)
Return type: number; implicit unit µL/min/mg.

May I ask what microsomal CLint at 1 µM has been recorded for C[C@H]1CC[C@H](N)CN1c1ccncc1Nc1ncc2ccc(-c3c(F)cccc3F)nn12 ? 477

Request: C[C@]1(N)CCCN(c2ccncc2Nc2ncc3ccc(-c4c(F)cccc4F)nn23)C1 (racemic) 311

Request: N[C@H]1CCCN(c2ccncc2Nc2ncc3ccc(-c4ccccc4F)nn23)C1 120

Request: C[C@@H]1[C@@H](N)CCCN1c1ccncc1Nc1ncc2ccc(-c3c(F)cccc3F)nn12 344

Request: N[C@H]1CCCN(c2ccncc2Nc2ncc3ccc(-c4nccs4)nn23)C1 54

Request: N[C@H]1CCCN(c2ncncc2Nc2ncc3ccc(-c4c(F)cccc4F)nn23)C1 110

Request: N[C@H]1CCCN(c2ccncc2Nc2ncc3ccc(-c4ccc(F)cc4F)nn23)C1 132

Request: N[C@H]1CCCN(c2ccncc2Nc2ncc3ccc(-c4cccnc4F)nn23)C1 39

Request: N[C@H]1CCCN(c2ccncc2Nc2ncc3ccc(-c4c(F)cccc4F)nn23)C1 130

Request: N[C@H]1C[C@@H](F)CN(c2ccncc2Nc2ncc3ccc(-c4c(F)cccc4F)nn23)C1 143

Request: N[C@H]1CCCN(c2ccncc2Nc2ncc3ccc(-c4ccc(Cl)cc4Cl)nn23)C1 260

Request: N[C@H]1CCCN(c2sncc2Nc2ncc3ccc(-c4c(F)cccc4F)nn23)C1 167

Request: N[C@H]1CCCN(c2ccncc2Nc2ncc3ccc(Cl)nn23)C1 27

Request: C[C@@H]1CCN(c2ccncc2Nc2ncc3ccc(-c4c(F)cccc4F)nn23)C[C@H]1N 219

Request: C[C@@H]1C[C@H](N)CN(c2ccncc2Nc2ncc3ccc(-c4ncccc4F)nn23)C1 91

Request: N[C@H]1CCCN(c2ccncc2Nc2ncc3ccc(-c4ncccc4F)nn23)C1 40

Request: C[C@@H]1CC[C@H](N)CN1c1ccncc1Nc1ncc2ccc(-c3cccc(F)n3)nn12 194

Request: N[C@@H]1CCCN(c2ccncc2Nc2ncc3ccc(-c4c(F)cccc4F)nn23)C1 280

Request: CN[C@H]1CCCN(c2ccncc2Nc2ncc3ccc(-c4c(F)cccc4F)nn23)C1 185

Request: N[C@H]1CCCN(c2cnccc2Nc2ncc3ccc(-c4c(F)cccc4F)nn23)C1 61

Request: N[C@H]1CCC[C@@H](c2ccncc2Nc2ncc3ccc(-c4c(F)cccc4F)nn23)C1 (racemic) 106

Request: N[C@H]1CCCN(c2ccccc2Nc2ncc3ccc(-c4c(F)cccc4F)nn23)C1 63

Request: C[C@H]1C[C@H](N)CN(c2ccncc2Nc2ncc3ccc(-c4c(F)cccc4F)nn23)C1 347

Request: N[C@H]1CCCN(c2ccncc2Nc2ncc3ccc(-c4ccccc4Cl)nn23)C1 122

Request: C[C@H]1[C@@H](N)CCCN1c1ccncc1Nc1ncc2ccc(-c3c(F)cccc3F)nn12 312

----------
- METHOD SUMMARY: Antiproliferative activity against human MOLP2 cells after 72 hrs by CellTiter-Glo assay
- Format: functional, cell-based
- RECORDED CONDITIONS: MOLP-2, 72 h
OBSERVED PROPERTY: pIC50
Units for pIC50: none; it is -log10 of a concentration expressed in mol/L.

May I ask what pIC50 has been recorded for C[C@@H]1C[C@H](N)CN(c2ccncc2Nc2ncc3ccc(-c4c(F)cccc4F)nn23)C1 ? 6.48

----------
- METHOD SUMMARY: Volume of distribution at steady state in Sprague-Dawley rat at 2 mg/kg, iv
- Type: ADME, organism-based
- RECORDED CONDITIONS: in vivo, read-out: Vdss
Task for the reader: assign each of the following molecules its reported Vd.
Return type: number; implicit unit L/kg.

May I ask what Vd has been recorded for N[C@H]1CCCN(c2ccncc2Nc2ncc3ccc(-c4ncccc4F)nn23)C1 ? 3.3

Request: C[C@@H]1C[C@H](N)CN(c2ccncc2Nc2ncc3ccc(-c4c(F)cccc4F)nn23)C1 7.3

Request: C[C@@H]1CC[C@H](N)CN1c1ccncc1Nc1ncc2ccc(-c3c(F)cccc3F)nn12 21.7

Request: N[C@H]1CCCN(c2ccncc2Nc2ncc3ccc(-c4c(F)cccc4F)nn23)C1 7.9

Request: C[C@@H]1C[C@H](N)CN(c2ccncc2Nc2ncc3ccc(-c4ncccc4F)nn23)C1 6.7

----------
- METHOD SUMMARY: Aqueous solubility in pH 6.8 FsSIF after 48 to 72 hrs by HPLC analysis
- Format: physicochemical
OBSERVED PROPERTY: solubility

May I ask what solubility has been recorded for C[C@@H]1C[C@H](N)CN(c2ccncc2Nc2ncc3ccc(-c4c(F)cccc4F)nn23)C1 ? 150 µg/mL

----------
- METHOD SUMMARY: Intrinsic clearance in human liver microsomes at 1 uM after 30 mins by LC-MS HRMS analysis
- Format: ADME
- RECORDED CONDITIONS: read-out: CLH
Task for the reader: assign each of the following compounds its reported microsomal CLint at 1 µM.
Return type: number; implicit unit µL/min/mg.

May I ask what microsomal CLint at 1 µM has been recorded for O[C@H]1CCCN(c2ccncc2Nc2ncc3ccc(-c4c(F)cccc4F)nn23)C1 ? 472

Request: N[C@H]1C[C@@H](F)CN(c2ccncc2Nc2ncc3ccc(-c4c(F)cccc4F)nn23)C1 51

Request: N[C@H]1CCCN(c2sncc2Nc2ncc3ccc(-c4c(F)cccc4F)nn23)C1 28

Request: C[C@H]1CC[C@H](N)CN1c1ccncc1Nc1ncc2ccc(-c3c(F)cccc3F)nn12 80

Request: N[C@H]1CCCN(c2ccncc2Nc2ncc3ccc(-c4cccnc4F)nn23)C1 34

----------
- SYSTEM: Serine/threonine-protein kinase pim-2 (Homo sapiens, UniProt Q9P1W9)
- Sequence (Q9P1W9 whole entry): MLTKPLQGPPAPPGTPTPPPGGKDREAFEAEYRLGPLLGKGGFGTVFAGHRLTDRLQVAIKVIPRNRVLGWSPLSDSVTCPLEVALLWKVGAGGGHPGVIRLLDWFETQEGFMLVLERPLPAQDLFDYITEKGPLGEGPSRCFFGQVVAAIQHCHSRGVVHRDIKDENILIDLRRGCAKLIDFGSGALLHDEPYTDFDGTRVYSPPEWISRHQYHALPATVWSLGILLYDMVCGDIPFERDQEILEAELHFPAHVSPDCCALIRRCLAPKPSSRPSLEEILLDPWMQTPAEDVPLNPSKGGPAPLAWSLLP
- METHOD SUMMARY: Inhibition of recombinant Pim2 (unknown origin) by electrochemiluminescence assay
OBSERVED PROPERTY: pIC50
Units for pIC50: none; it is -log10 of a concentration expressed in mol/L.

May I ask what pIC50 has been recorded for N[C@H]1CCCN(c2ccnc(NC(=O)c3c[nH]c4ccc(-c5ccccc5F)nc34)c2)C1 ? 6.50

Request: N[C@H]1CCCN(c2ccncc2Nc2ncc3ccc(-c4nccs4)nn23)C1 8.54

Request: N[C@H]1CCCN(c2sncc2Nc2ncc3ccc(-c4c(F)cccc4F)nn23)C1 6.83

Request: N[C@H]1CCCN(c2ccncc2Nc2ncc3ccc(-c4ccccc4Cl)nn23)C1 8.47

Request: C[C@@H]1CCN(c2ccncc2Nc2ncc3ccc(-c4c(F)cccc4F)nn23)C[C@H]1N 9.74

Request: N[C@H]1CCCN(c2ccncc2Nc2ncc3ccc(-c4ccc(F)cc4F)nn23)C1 8.51

Request: N[C@H]1CCCN(c2ccncc2Nc2ncc3ccc(-c4ccccc4F)nn23)C1 8.80

----------
- METHOD SUMMARY: Antiproliferative activity against human KMS12PE cells after 72 hrs by CellTiter-Glo assay
- Type: functional, cell-based
- RECORDED CONDITIONS: KMS-12-PE
OBSERVED PROPERTY: pIC50
Units for pIC50: none; it is -log10 of a concentration expressed in mol/L.

May I ask what pIC50 has been recorded for C[C@@H]1C[C@H](N)CN(c2ccncc2Nc2ncc3ccc(-c4c(F)cccc4F)nn23)C1 ? 6.89

----------
Task for the reader: assign each of the following molecules its reported log10 microsomal CLint at 1 µM.
- METHOD SUMMARY: Intrinsic clearance in human liver microsomes at 1 uM after 30 mins by LC-MS HRMS analysis
- Assay type: ADME
- RECORDED CONDITIONS: read-out: CLH
Recall that a logarithmic scale is used here: each number is log10 of microsomal CLint at 1 µM in µL/min/mg.

May I ask what log10 microsomal CLint at 1 µM has been recorded for N[C@H]1CCN(c2ccncc2Nc2ncc3ccc(-c4c(F)cccc4F)nn23)C1 ? 1.18

Request: N[C@H]1CCCN(c2ccncc2Nc2ncc3ccc(Cl)nn23)C1 1.26

Request: N[C@@H]1CCCN(c2ccncc2Nc2ncc3ccc(-c4c(F)cccc4F)nn23)C1 1.95

Request: N[C@@H]1CN(c2ccncc2Nc2ncc3ccc(-c4c(F)cccc4F)nn23)CC[C@H]1F 2.65

Request: C[C@@H]1[C@@H](N)CCCN1c1ccncc1Nc1ncc2ccc(-c3c(F)cccc3F)nn12 1.90

Request: C[C@H]1CCN(c2ccncc2Nc2ncc3ccc(-c4c(F)cccc4F)nn23)C[C@H]1N 2.11

Request: C[C@@H]1CC[C@H](N)CN1c1ccncc1Nc1ncc2ccc(-c3cccc(F)n3)nn12 1.85

Request: Fc1cccc(F)c1-c1ccc2cnc(Nc3cnccc3N3CCCCC3)n2n1 2.60

Request: N[C@H]1CCCN(c2ccncc2Nc2ncc3ccc(-c4ccccc4Cl)nn23)C1 1.95

Request: C[C@@H]1C[C@H](N)CN(c2ccncc2Nc2ncc3ccc(-c4ncccc4F)nn23)C1 1.52
